// data source = PubChem BioAssay AID1963825

experiment: Anticancer human tumor 997537-175-T-J1-PDC patient-derived colon adenocarcinoma cell line growth inhibition [POLQ]; settings: 997537-175-T-J1-PDC complex spheroid viability, combination with POLQ inhibitors; second compound 10 µM; first compound 1 µM; stronger effect = lower value
measured.endpoint: viability, T/C

[[record]]
molecule = "CCc1cc2c(N3CCc4c(cc(Cn5ccnc5)cc4-c4cn(C)nc4C(F)(F)F)C3=O)cc(C)nc2c(OC)n1 + COC1C(OC(N)=O)C(O)C(Oc2ccc3c(O)c(NC(=O)c4ccc(O)c(CC=C(C)C)c4)c(=O)oc3c2C)OC1(C)C"
measured_endpoint = "viability, T/C"
reported_value = "66.9%"

[[record]]
molecule = "CC1COCCN1c1cc(C2(S(C)(=N)=O)CC2)nc(-c2ccnc3[nH]ccc23)n1 (stereo unspecified) + COC1C(OC(N)=O)C(O)C(Oc2ccc3c(O)c(NC(=O)c4ccc(O)c(CC=C(C)C)c4)c(=O)oc3c2C)OC1(C)C"
measured_endpoint = "viability, T/C"
reported_value = "66.5%"

[[record]]
molecule = "COc1cc(C2c3cc4c(cc3C(OC3OC5COC(C)OC5C(O)C3O)C3COC(=O)C23)OCO4)cc(OC)c1O (stereo unspecified) + COC1C(OC(N)=O)C(O)C(Oc2ccc3c(O)c(NC(=O)c4ccc(O)c(CC=C(C)C)c4)c(=O)oc3c2C)OC1(C)C"
measured_endpoint = "viability, T/C"
reported_value = "100%"

[[record]]
molecule = "COc1cc2cc(C(=O)CCC(=O)O)sc2cc1OC + Nc1ccc(C#CCN(C(=O)Cc2ncc(C(F)(F)F)cc2C(F)(F)F)c2ccc(F)cc2)nn1"
measured_endpoint = "viability, T/C"
reported_value = "111%"


Can you share its viability, T/C? I mean this molecule: C=CC(=O)N1CCN(c2nc(=O)n(-c3c(C)ccnc3C(C)C)c3nc(-c4c(O)cccc4F)c(F)cc23)C(C)C1 (stereo unspecified) + Nc1ccc(C#CCN(C(=O)Cc2ncc(C(F)(F)F)cc2C(F)(F)F)c2ccc(F)cc2)nn1
95.3%

What do you get for C=CCn1c(=O)c2cnc(Nc3ccc(N4CCN(C)CC4)cc3)nc2n1-c1cccc(C(C)(C)O)n1 + Cc1cccc(N(C)C(=O)C2C(O)CCN2c2nc(C)cc(C(F)(F)F)c2C#N)c1 ?
94.8%

###

assay: Anticancer human tumor 997537-175-T-J1-PDC cell line growth inhibition [POLQ]; settings: 997537-175-T-J1-PDC complex spheroid viability, combination with POLQ inhibitors; second compound 0.1 µM; first compound 10 µM; stronger effect = lower value;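 further: luminescence signal used as a surrogate for viable cells; spheroids exposed to drugs for seven days before readout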
measured.endpoint: viability, T/C (%)
Unit % implied. Number only.

[[record]]
molecule = "CCc1cc2c(N3CCc4c(cc(Cn5ccnc5)cc4-c4cn(C)nc4C(F)(F)F)C3=O)cc(C)nc2c(OC)n1 + Nc1ccc(C#CCN(C(=O)Cc2ncc(C(F)(F)F)cc2C(F)(F)F)c2ccc(F)cc2)nn1"
reported_value = 74.9

[[record]]
molecule = "CCc1cc2c(N3CCc4c(cc(Cn5ccnc5)cc4-c4cn(C)nc4C(F)(F)F)C3=O)ccnc2c(OC)n1 + Cc1cccc(N(C)C(=O)C2C(O)CCN2c2nc(C)cc(C(F)(F)F)c2C#N)c1"
reported_value = 58.3

[[record]]
molecule = "COc1cc(C2c3cc4c(cc3C(OC3OC5COC(C)OC5C(O)C3O)C3COC(=O)C23)OCO4)cc(OC)c1O (stereo not given) + Nc1ccc(C#CCN(C(=O)Cc2ncc(C(F)(F)F)cc2C(F)(F)F)c2ccc(F)cc2)nn1"
reported_value = 66.2

[[record]]
molecule = "Nc1ccn(C2OC(CO)C(O)C2(F)F)c(=O)n1 (stereo not given) + COC1C(OC(N)=O)C(O)C(Oc2ccc3c(O)c(NC(=O)c4ccc(O)c(CC=C(C)C)c4)c(=O)oc3c2C)OC1(C)C"
reported_value = 74.9


Could you share which viability, T/C value was measured for COc1cccc2c1C(=O)c1c(O)c3c(c(O)c1C2=O)CC(O)(C(=O)CO)CC3OC1CC(N)C(O)C(C)O1 (stereo not given) + Cc1cccc(N(C)C(=O)C2C(O)CCN2c2nc(C)cc(C(F)(F)F)c2C#N)c1 ?
9.45

###

assay: Anticancer human tumor 997537-175-T-J1-PDC cell line growth inhibition [POLQ]; details: 997537-175-T-J1-PDC complex spheroid viability, combination with POLQ inhibitors; second compound 3.16 µM; first compound 10 µM; stronger effect = lower value;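 further: luminescence signal used as a surrogate for viable cells; spheroids exposed to drugs for seven days before readout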
As shown below, each of these compounds has a reported viability, T/C value.
Could you give me the number in %? Just the number is fine.

Item C=CC(=O)N1CCN(c2nc(=O)n(-c3c(C)ccnc3C(C)C)c3nc(-c4c(O)cccc4F)c(F)cc23)C(C)C1 (stereo not given) + Cc1cccc(N(C)C(=O)C2C(O)CCN2c2nc(C)cc(C(F)(F)F)c2C#N)c1 has what recorded viability, T/C?
99.3

What about this compound? CC1COCCN1c1cc(C2(S(C)(=N)=O)CC2)nc(-c2ccnc3[nH]ccc23)n1 (stereo not given) + Cc1cccc(N(C)C(=O)C2C(O)CCN2c2nc(C)cc(C(F)(F)F)c2C#N)c1
70.8

Moving on to the next compound: C#Cc1c(F)ccc2cc(O)cc(-c3ncc4c(N5CC6CCC(C5)N6)nc(OCC56CCCN5CC(F)C6)nc4c3F)c12 (stereo not given) + Nc1ccc(C#CCN(C(=O)Cc2ncc(C(F)(F)F)cc2C(F)(F)F)c2ccc(F)cc2)nn1
107

// query: CNCc1ccc(-c2[nH]c3cc(F)cc4c3c2CCNC4=O)cc1 + COC1C(OC(N)=O)C(O)C(Oc2ccc3c(O)c(NC(=O)c4ccc(O)c(CC=C(C)C)c4)c(=O)oc3c2C)OC1(C)C
86.8

Try Nc1ccn(C2OC(CO)C(O)C2(F)F)c(=O)n1 (stereo not given) + Cc1cccc(N(C)C(=O)C2C(O)CCN2c2nc(C)cc(C(F)(F)F)c2C#N)c1 next.
70.7

###

test: Anticancer human tumor 997537-175-T-J1-PDC cell line growth inhibition [POLQ]; conditions: 997537-175-T-J1-PDC complex spheroid viability, combination with POLQ inhibitors; second compound 3.16 µM; first compound 10 µM; stronger effect = lower value;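 further: luminescence signal used as a surrogate for viable cells; spheroids exposed to drugs for seven days before readout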
measured.endpoint: viability, T/C (%)
Express the result in % but write the number alone.

[[record]]
compound = "COc1ccc([C@@H](O)c2cc(-c3ncnc4cc(N5CCOCC5)ccc34)c(F)cc2Cl)nn1 + Cc1cccc(N(C)C(=O)C2C(O)CCN2c2nc(C)cc(C(F)(F)F)c2C#N)c1"
reported_value = 72.7

[[record]]
compound = "CC1COCCN1c1cc(C2(S(C)(=N)=O)CC2)nc(-c2ccnc3[nH]ccc23)n1 (stereo unspecified) + Nc1ccc(C#CCN(C(=O)Cc2ncc(C(F)(F)F)cc2C(F)(F)F)c2ccc(F)cc2)nn1"
reported_value = 40


Which viability, T/C value belongs to COc1cc2cc(C(=O)CCC(=O)O)sc2cc1OC + Nc1ccc(C#CCN(C(=O)Cc2ncc(C(F)(F)F)cc2C(F)(F)F)c2ccc(F)cc2)nn1 ?
92.5

Also check O=C(Nc1ccc(O)c(NS(=O)(=O)c2ccc(F)cc2)c1)c1ccc(-c2ccccc2)cc1 + Cc1cccc(N(C)C(=O)C2C(O)CCN2c2nc(C)cc(C(F)(F)F)c2C#N)c1
91.7

###

assay: Anticancer human tumor 997537-175-T-J1-PDC cell line growth inhibition [POLQ]; settings: 997537-175-T-J1-PDC complex spheroid viability, combination with POLQ inhibitors; curve of first compound; second compound 1 µM;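 further: luminescence signal used as a surrogate for viable cells; spheroids exposed to drugs for seven days before readout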
measured.endpoint: IC50

Could you share which IC50 value was measured for CC(C)n1c(=O)n(C)c2cnc3cc(F)c(-c4ccc(OCCCN5CCCCC5)nc4)cc3c21 + Cc1cccc(N(C)C(=O)C2C(O)CCN2c2nc(C)cc(C(F)(F)F)c2C#N)c1 ?
> 10 µM

Another: COc1cccc2c1C(=O)c1c(O)c3c(c(O)c1C2=O)CC(O)(C(=O)CO)CC3OC1CC(N)C(O)C(C)O1 (stereo unspecified) + Cc1cccc(N(C)C(=O)C2C(O)CCN2c2nc(C)cc(C(F)(F)F)c2C#N)c1
1.54 µM

Again, but for O=C(Nc1ccc(O)c(NS(=O)(=O)c2ccc(F)cc2)c1)c1ccc(-c2ccccc2)cc1 + Nc1ccc(C#CCN(C(=O)Cc2ncc(C(F)(F)F)cc2C(F)(F)F)c2ccc(F)cc2)nn1
> 10 µM

Can you handle CCCS(=O)(=O)Nc1ccc(F)c(C(=O)c2c[nH]c3ncc(-c4ccc(Cl)cc4)cc23)c1F + Cc1cccc(N(C)C(=O)C2C(O)CCN2c2nc(C)cc(C(F)(F)F)c2C#N)c1 next?
4.49 µM

How about COc1cccc(OCCCN)c1-c1cc(Nc2cnc(C#N)cn2)n[nH]1 + COC1C(OC(N)=O)C(O)C(Oc2ccc3c(O)c(NC(=O)c4ccc(O)c(CC=C(C)C)c4)c(=O)oc3c2C)OC1(C)C ?
0.0324 µM

Here is the next molecule: O=C(Nc1ccc(O)c(NS(=O)(=O)c2ccc(F)cc2)c1)c1ccc(-c2ccccc2)cc1 + COC1C(OC(N)=O)C(O)C(Oc2ccc3c(O)c(NC(=O)c4ccc(O)c(CC=C(C)C)c4)c(=O)oc3c2C)OC1(C)C
> 10 µM

Now this one: CCc1c2c(nc3ccc(O)cc13)-c1cc3c(c(=O)n1C2)COC(=O)[C@]3(O)CC + Nc1ccc(C#CCN(C(=O)Cc2ncc(C(F)(F)F)cc2C(F)(F)F)c2ccc(F)cc2)nn1
0.02 µM

Now the same for O=C(c1cc(Cc2n[nH]c(=O)c3ccccc23)ccc1F)N1CCN(C(=O)C2CC2)CC1 + Cc1cccc(N(C)C(=O)C2C(O)CCN2c2nc(C)cc(C(F)(F)F)c2C#N)c1
> 10 µM
